This collection of values is drawn from patent US20230227520A1.

Biological target: T1, G-CSFR on NFS-60 cells (murine myeloblastic cell line) (mouse, UniProt P40223 26-837)
T1 sequence (looked up): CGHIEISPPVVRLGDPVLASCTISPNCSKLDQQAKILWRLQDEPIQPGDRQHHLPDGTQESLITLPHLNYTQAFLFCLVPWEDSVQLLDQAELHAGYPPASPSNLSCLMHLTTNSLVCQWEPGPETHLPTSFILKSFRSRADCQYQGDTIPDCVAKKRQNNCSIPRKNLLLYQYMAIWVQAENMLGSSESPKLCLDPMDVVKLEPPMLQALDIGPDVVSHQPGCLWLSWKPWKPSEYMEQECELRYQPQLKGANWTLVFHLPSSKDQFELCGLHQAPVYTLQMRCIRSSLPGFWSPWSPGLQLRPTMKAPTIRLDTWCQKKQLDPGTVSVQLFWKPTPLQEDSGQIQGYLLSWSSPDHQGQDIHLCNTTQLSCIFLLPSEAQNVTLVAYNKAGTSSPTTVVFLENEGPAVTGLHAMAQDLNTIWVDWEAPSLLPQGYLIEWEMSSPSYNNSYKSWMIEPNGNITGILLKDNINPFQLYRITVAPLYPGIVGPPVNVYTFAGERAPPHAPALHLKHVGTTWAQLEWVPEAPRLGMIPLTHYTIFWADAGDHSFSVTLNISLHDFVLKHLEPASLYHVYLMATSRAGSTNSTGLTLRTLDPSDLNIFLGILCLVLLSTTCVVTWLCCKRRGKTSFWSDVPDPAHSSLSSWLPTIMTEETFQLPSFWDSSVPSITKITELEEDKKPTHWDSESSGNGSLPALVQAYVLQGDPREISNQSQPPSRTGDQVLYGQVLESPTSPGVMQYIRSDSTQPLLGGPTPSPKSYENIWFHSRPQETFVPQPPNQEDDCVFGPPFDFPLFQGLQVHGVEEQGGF
Assay: cell-based or functional assay
RESULT TYPE: NFS-60 EC50 (ng/mL), proliferation of NFS-60 cells

>>> measured("Boskar_4 (designed binder) AALAAALAEIYKGLAEYQARLKSLEGISPELGPALDALRLDMADFATTMAQAMEEGLDSLPQSFLLKALEQIRKIQADAAALREKLAATYKGNDRAAAAVEIAAQLEAFLEKAYQILRHLAAA")
27
>>> measured("Sohair (designed binder) MTSDYIIEQIQRKQEEARLKVEEMERKLEAVKEASKRGVSSDQLLNLILDLADIITTLIQIIEESNEAIKELIKNQKGPTSDYIIEQIQRDQEEARKKVEEAEERLERVKEASKRGVSSDQLLDLIRELAEIIEELIRIIRRSNEAIKELIKNQ")
5050
>>> measured("Disohair_2 (designed binder, Expressed with an N-terminal hexa-His-tag and thrombin site) MTSDYIIEQIQRKQEEARLKVEEQERKLEAVKEASKRGVSSDQLLNLILDLADIITTLIQIIEESNEAIKELIKNQ")
396
>>> measured("Boskar_2 (designed binder) AALAAELAEIMKGLQEYQARLKSLEGISPELGPALDALRLDMADFATTMAQMMEENPSDLPQSFLLKALEQIRKIQADAAALREKLAATYPNSQRAAAAVEIAAQLEAFLEKAYQILRHLAAA")
3220
